- System: L1210 leukemia ip in BDF1 mice, survival T/C
- testDetails: NCI In Vivo Anticancer Drug Screen. Data for tumor model L1210 Leukemia (intraperitoneal) in B6D2F1 (BDF1) mice
- protocolConditions: endpoint: mean survival time; dose: 75.0 mg/kg/injection; schedule: Q01DX001 (ip); vehicle: other; higher = longer survival
Inconclusive results and toxic doses are left out.
testReadout: T/C

molecule: CCCCCCCCCCN(CCCCCCCCCC)S(=O)(=O)c1ccc(OC)c([N+](=O)[O-])c1
testReadout: T/C
reportedResult: 100 % of control
//
molecule: CC12C=CC(O1)C1C(=O)OC(=O)C12 (centres undefined)
testReadout: T/C
reportedResult: 96 % of control
//
molecule: CC(C)(C)c1nc2ccc([N+](=O)[O-])cc2[nH]1
testReadout: T/C
reportedResult: 92 % of control

Q) Could you tell me which T/C is on file for CCC1(c2ccccc2)C(=O)NC(=S)N(C)C1=O (centres undefined) ?
A) 95 % of control
